Listed next: entries and their corresponding IC50.
Target: KRas G12V (Homo sapiens, UniProt P01116, G12V)
Construct: Biotinylated KRas G12V (aa 1-169) loaded with GDP nucleotide; biotin (biotinylated)
Sequence (P01116 1-169 G12V): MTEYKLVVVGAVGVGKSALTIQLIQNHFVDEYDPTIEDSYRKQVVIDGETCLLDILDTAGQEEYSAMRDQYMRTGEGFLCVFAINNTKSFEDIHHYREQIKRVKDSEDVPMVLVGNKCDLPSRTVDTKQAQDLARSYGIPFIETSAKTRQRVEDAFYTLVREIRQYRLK
Assay: SOS1-Catalyzed Nucleotide Exchange Assay, KRas G12V (Method 2)
Assay type: biochemical
Conditions: Method 2, B; 5 nM KRas G12V (aa 1-169, GDP-loaded), 50 nM SOS1; read-out: KRas G12V IC50 (nM) (Method 2, B)

Record excerpt, results attached:
1. Nc1cc2c(cc1F)CCCCC(=O)NCCC1CCCN(C1)c1nc(OC[C@@]34CCCN3C[C@H](F)C4)nc3c(F)c-2ncc13 (single isomer, unassigned) [Compound 159b] :: 1000 to 10000 nM
2. Nc1cc2c(c(Cl)n1)CCCCC(=O)NCCC1CCCN(C1)c1nc(OC[C@@]34CCCN3C[C@H](F)C4)nc3c(F)c-2ncc13 (some centres unmarked) [Compound 186a] :: 100 to 1000 nM
3. Nc1cc(Cl)c2c(c1)-c1ncc3c(nc(OC[C@@]45CCCN4C[C@H](F)C5)nc3c1F)N1CCC(CCNC(=O)CCCC2)C1 (some centres unmarked) [Compound 164a] :: 1000 to 10000 nM
4. Nc1cc(Cl)c2c(c1)-c1ncc3c(nc(OC[C@@]45CCCN4C[C@H](F)C5)nc3c1F)N1C[C@H](F)C[C@H](C1)NC(=O)CCCC2 [Compound 201a] :: 100 to 1000 nM
5. Nc1cc2c(c(Cl)c1F)CCCCC(=O)NCCC1CCCN(C1)c1nc(OC[C@@]34CCCN3C[C@H](F)C4)nc3c(F)c-2ncc13 (some centres unmarked) [Compound 172a] :: ≤ 100 nM
6. Nc1cc2c(cc1F)CCCCC(=O)NCCC1CCCN(C1)c1nc(OC[C@@]34CCCN3C[C@H](F)C4)nc3c(F)c-2ccc13 (some centres unmarked) [Compound 163a] :: 1000 to 10000 nM
7. Nc1cc2c(c(Cl)c1F)CCCCC(=O)NCCC1CCCN(C1)c1nc(OC[C@@]34CCCN3C[C@H](F)C4)nc3c(F)c-2ccc13 (some centres unmarked) [Compound 174a] :: 100 to 1000 nM
8. Nc1cc2c(c(C(F)(F)F)c1)CCCCC(=O)NCCC1CCCN(C1)c1nc(OC[C@@]34CCCN3C[C@H](F)C4)nc3c(F)c-2ncc13 (some centres unmarked) [Compound 181a] :: 1000 to 10000 nM
9. CN1C[C@H](F)C[C@H]1COc1nc2c3cnc(c(F)c3n1)-c1cc(N)cc(Cl)c1CCCCC(=O)NCCC1CCCN2C1 (some centres unmarked) [Compound 179a] :: 100 to 1000 nM
10. O=C1CCCCc2c(Cl)cc3[nH]ncc3c2-c2c(F)cc3c(nc(OC[C@@]45CCCN4C[C@H](F)C5)nc3c2F)N2CCOCC(CN1)C2 (some centres unmarked) [Compound 200a] :: ≤ 100 nM

INPUT: Return the recorded IC50 value; entry: Nc1cc2c(c(Cl)n1)CCCCC(=O)NCCC1(O)CCCN(C1)c1nc(OC[C@@]34CCCN3C[C@H](F)C4)nc3c(F)c-2c(F)cc13 (single isomer, unassigned) [Compound 188a]
OUTPUT: 10000 to 30000 nM

INPUT: Return the recorded IC50 value; entry: O=C1CCCc2c(F)ccc3cc(O)cc(c23)-c2ncc3c(nc(OC[C@@]45CCCN4C[C@H](F)C5)nc3c2F)N2CCOCC(CCN1)C2 (some centres unmarked) [Compound 194a]
OUTPUT: ≤ 100 nM

INPUT: Return the recorded IC50 value; entry: CN1CCC[C@H]1COc1nc2c3cnc(c(F)c3n1)-c1cc(N)cc(Cl)c1CCCCC(=O)NCCC1CCCN2C1 (some centres unmarked) [Compound 171a]
OUTPUT: 100 to 1000 nM

INPUT: Return the recorded IC50 value; entry: O=C1CCCCc2ccc3[nH]ncc3c2-c2ncc3c(nc(OC[C@@]45CCCN4C[C@H](F)C5)nc3c2F)N2CCCC(CCN1)C2 (some centres unmarked) [Compound 167a]
OUTPUT: ≤ 100 nM

INPUT: Return the recorded IC50 value; entry: O=C1CCCc2c(F)ccc3cccc(c23)-c2ccc3c(nc(OC[C@@]45CCCN4C[C@H](F)C5)nc3c2F)N2CCCC(CCN1)C2 (some centres unmarked) [Compound 191a]
OUTPUT: ≤ 100 nM

INPUT: Return the recorded IC50 value; entry: O=C1CCCCc2c(Cl)cc3[nH]ncc3c2-c2ccc3c(nc(OC[C@@]45CCCN4C[C@H](F)C5)nc3c2F)N2CCCC(O)(CCN1)C2 (some centres unmarked) [Compound 199a]
OUTPUT: ≤ 100 nM
